So I've got a bunch of variants here, and I need their self-cleavage values.
B1: LINE1-full (parent)
chain: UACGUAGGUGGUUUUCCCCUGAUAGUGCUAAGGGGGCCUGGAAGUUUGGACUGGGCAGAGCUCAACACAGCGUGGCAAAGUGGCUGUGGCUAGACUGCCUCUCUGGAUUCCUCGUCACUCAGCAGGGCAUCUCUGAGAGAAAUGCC

variants of: B1; assay: self-cleavage, relative activity (ratio to wild type); higher = more cleavage; in vitro, sequencing; the parent is a self-cleaving ribozyme

self-cleavage reported for this variant UACGUAGGUGGUUUUCCCCUGAUAGUGCUAAGGGGGCCUGGAAGUUUGGACUGGGCAGAGCUCAACACAGCGUGGCAAAGUGGCUGUGGCUAGACUGCCUCUCUUGAUUCCUCGACACUCAGCAGGGCAUCUCUGAGAGAAAUGCC [G105U U115A] : 1.72

The recorded self-cleavage for UACGUAGGUGGUUUUCCCCUGAUAGUGCUAAGGGGGCCUGGAAGUUUGGACUGGGCAGAGCUCAACACAGCGUGGCAAAGUGGCUGUGGCUAGACUGCCUCUCUGGAUUCCUCGUCACUCGGCAGGGCAUCUCCGAGAGAAAUGCC [A121G U134C] is 1.88

Lookup result for UACGUAGGUGGUUUUCCCCUGAUAGUGCUAAGGGGGCCUGGAAGUUUGGACUGGGCAGAGCUCAACACAGCGUGGCAAAGUGGCUGUGGCUAGACUGCCCCUCUGGAUUCCUCGUCACUCAGCAGGGUAUCUCUGAGAGAAAUGCC [U100C C128U] ; measured self-cleavage: 1.58

self-cleavage reported for this variant UACGUAGGUGGUUUUCCCCUGAUAGUGCUAAGGGGGCCUGGAAGUUUGGCCUGGGCAGAGCUCAACACAGCGUGGCAAAGUGGCUGUGGCUAGACUGCCUCUCAGGAUUCCUCGUCACUCAGCAGGGCAUCUCUGAGAGAAAUGCC [A50C U104A] : 0.87

Quick note, self-cleavage for UACGUAGGUGGUUUUCCCCUGAUAGUGCUAAGGGGGUCUGGAAGUUUGGACUGGGCAGAGCUCAACACAGCGUGGCAAAGUGGCUGUGGCUAGACUGCCUCUCUGGAUUCCUCGUCACUCAGCAGGGCUUCUCUGAGAGAAAUGCC [C37U A129U] landed at 0.45

The variant listed as UACGUAGCUGGUUUUCCCCUGAUAGUGCUAAGGGGGCCUGGAAGUUUGGACUGGGCAGAGCUCAACACAGCGUGGCAAAGUGGCUGUGGCUAGACUGCCUCUCUGGAUUCCUCGUCACUCCGCAGGGCAUCUCUGAGAGAAAUGCC [G8C A121C] shows self-cleavage equal to 1.75

GET /value?item= UACGUAGGUGGUUUUCCCCUGAUAGUGCUAAGGGGGCCUGGUAGUUUGGACUGGGCAGAGCUCAACACAGCGUGGCAAAGUGGCUGUGGCUAGACUGCCUCUCUGGAUUCCUCGUCACUCAGCAGGGCUUCUCUGAGAGAAAUGCC [A42U A129U] &field=self-cleavage returns 0.86

Lab book: self-cleavage of UACGUAGGUGGUUUUCCCCUGAUAGUGCUAAGGGGGCCUGGAAGUUUGGACUGGGCAGAGCUCAACACAGCGUGGCAAAGUGGCUGUGGCCAGACUGCCUCUCUGGAUUCCUCGGCACUCAGCAGGGCAUCUCUGAGAGAAAUGCC [U91C U115G] noted as 0.69

Note to self: self-cleavage recorded for UACGUAGGUGGUUUUCCCCUGAUAGUGCUAAGGGGGCCUGGAAGUUUGGACUGGGAAGAGCUCAACACAGCGUGGCAAAGUGGCUGUGGCUAGACUGCCUCUCUGGAUUCCUCGUCACUCAGCAGGGCAUCUCUGAGAGAGAUGCC [C56A A141G] was 0.07

Value of self-cleavage reported for the variant UACGUAGGUGGUUUUCCCCUGAUAGUGCUAGGGGGGCCUGGAAGUUUGGACUGGGCAGAGCUCAACACAGCGUGGCAAAGUGGCUGUGGCUAGACUGCCUCUCUGGAUUCCUCGUCACUCAGCAGGGCAGCUCUGAGAGAAAUGCC [A31G U130G] is 1.84

UACGUAGGUGGUUUUCCCCUGAUAGUGCUAAGGGGGUCUGGAAGUUUGGACUGGGCAGAGCUCAACACAGCGUGGCAAGGUGGCUGUGGCUAGACUGCCUCUCUGGAUUCCUCGUCACUCAGCAGGGCAUCUCUGAGAGAAAUGCC [C37U A79G] has a reported self-cleavage of 1.1

Consider UACGUAGGUGGUUUUCCCCUGAUAGUGCUAAGGGGGCCUGGAAGUUUGGACUGGGCAGAGCUCAACACAGCGUGGCAAAGUGGCUGUGGCUGGACUGCCUCUCUGGAUUCCUCGUCACUCAGCAGGGCAUCUCUGUGAGAAAUGCC [A92G A136U] . Its measured self-cleavage is 0.05

Note to self: self-cleavage recorded for UACGUAGGAGGUUUUCCCCUGAUAGUGCUAAGGGGGCCUGGAAGUUUGGACUGGGCAGAGCUCAACACAGCGUAGCAAAGUGGCUGUGGCUAGACUGCCUCUCUGGAUUCCUCGUCACUCAGCAGGGCAUCUCUGAGAGAAAUGCC [U9A G74A] was 1.09

self-cleavage reading for UACGUAGGUGGUUUUCCCCUGAUAGUGCUAAGGGGGCCUGGAAGUUUGGACUGGGCAGAGCUCAACACAGCGUGGCAAAGUGGCAGUGGCUAGACUGCCUCUCUGGAUUCCUCGUCACCCAGCAGGGCAUCUCUGAGAGAAAUGCC [U85A U119C] : 0.09

# variant UACGUAGGUGGUAUUCCCCUGAUAGUGCUAAGGGGGCCUGGAAGUUUGGACUGGGCAGAGCUCAACACUGCGUGGCAAAGUGGCUGUGGCUAGACUGCCUCUCUGGAUUCCUCGUCACUCAGCAGGGCAUCUCUGAGAGAAAUGCC [U13A A69U] ; its self-cleavage = 0.01

For UACGUAGGUGGUUUUCCCCUGAUAGUGCUAAGGGGGCCCGGAAGUUUGGACUGGGCAGAGCUCAACACAGCGUGGCAAAGUGGCUGUGGCUAGACUGCCUCUCGGGAUUCCUCGUCACUCAGCAGGGCAUCUCUGAGAGAAAUGCC [U39C U104G] the variant record lists self-cleavage as 0.93

get_value(item= UACGUAGGUGGUUUUCCCCUGAUAGUGCUAAGGGGGCCUGGGAGUUUGGACUGGGCAGAGCUCAACACAGCGUGGCAAUGUGGCUGUGGCUAGACUGCCUCUCUGGAUUCCUCGUCACUCAGCAGGGCAUCUCUGAGAGAAAUGCC [A42G A79U] , readout=self-cleavage) returns 1.57

For record UACGUAGGUGGUUUUCCCCUGAUAGUGCUAAGGGGGCCUGGAAGUUAGGACUGGGCAGAGCUCAACACAGCGUGGCAAAGUGGCUGUGGCUAGACUGCCUCUCUGGAUUCCUCGUCACUAAGCAGGGCAUCUCUGAGAGAAAUGCC [U47A C120A] the listed self-cleavage is 1.36

self-cleavage in this record for UACGUAGGUGGUUUUCCCCUGAUAGUGCUAAGGGGGCCUGGAAGUCUGGACUGGGCAGAGCUCAACACAGCGUGGCAAAGUGGCUGUGGCUAGACUGCCUCUCUGGAUUCAUCGUCACUCAGCAGGGCAUCUCUGAGAGAAAUGCC [U46C C111A] : 1.17

The reported self-cleavage of the variant UACGUAGGUGGUUUUCCCCUGAUAGUGCUAAGGGGGCCUGGAAGGUUGGACUGGGCAGAGCUCAACACAGCGUGGCAAAGUGGCUGUGGCUAGACUGCCUCUCUGGAUCCCUCGUCACUCAGCAGGGCAUCUCUGAGAGAAAUGCC [U45G U109C] was 0.66
